The molecules below have reported MIC for T. mentagrophytes TIMM1177.
experimental-readout: MIC (µg/mL)

Use these answered entries as a reference point.
{"columns": ["input-smiles", "value-units", "MIC"],
 "data": [
  ["C=C(CN(C)C/C=C/C#CC(C)(C)C)c1cccc(Br)c1", "µg/mL", 0.1],
  ["C=C(CN(C)C/C=C/C#CC(C)(C)C)c1ccccc1", "µg/mL", 0.78],
  ["C=C(CN(C)C/C=C/C#CC(C)(C)C)c1cccc(C)c1", "µg/mL", 0.39],
  ["C=C(CN(C)Cc1ccc(C(C)(C)C)cc1)c1ccccc1C", "µg/mL", 6.25],
  ["C=C(CN(C)C/C=C/C#CC(C)(C)C)c1ccccc1C", "µg/mL", 0.39],
  ["C=C(CN(C)C/C=C/C#CC(C)(C)C)c1ccc(F)cc1", "µg/mL", 0.39]
]}

[I] C=C(CN(C)C/C=C/C#CC(C)(C)C)c1ccccc1Br
[II] C=C(CN(C)Cc1ccc(C(C)(C)C)cc1)c1ccccc1[N+](=O)[O-]
Given the listed records, identify the one among I and II with higher MIC. Pick one; state its label.
II
(II: 12.5 µg/mL, I: 1.56 µg/mL)

[P] CN(CC(=O)c1ccccc1O)Cc1ccc(C(C)(C)C)cc1
[Q] C=C(CN(C)C/C=C/C#CC(C)(C)C)c1cc(F)cc(F)c1
Lab log: flag the item ( P or Q ) with the smaller MIC figure. Pick one; state its label.
Q
(Q: 0.2 µg/mL, P: 12.5 µg/mL)

[1] C=C(CN(C)Cc1ccc(C(C)(C)C)cc1)c1cccc(C#N)c1
[2] C=C(CN(C)C/C=C/C#CC(C)(C)C)c1ccccc1N
Given the listed records, identify the one among 1 and 2 with higher MIC. Pick one; state its label.
2

[P] C=C(CN(C)Cc1ccc(C(C)(C)C)cc1)c1ccc(C)cc1C
[Q] C=C(CN(C)C/C=C/C#CC(C)(C)C)c1ccccc1F
Lab log: flag the item ( P or Q ) with the smaller MIC figure. Pick one; state its label.
Q
(Q: 0.39 µg/mL, P: 12.5 µg/mL)

----------
# Test system: T. mentagrophytes TIMM1177
# experiment-description: Measurement of antimycotic activity (minimum inhibitory concentration, MIC) against dermatophyte
# Assay type: cell-based
# condition-details: Trichophyton mentagrophytes, 168 h, Sabouraud's agar pH=5.9, 27° C., 1 week
experimental-readout: MIC (µg/mL)

[A] C=C(CN(C)Cc1ccc(C(C)(C)C)cc1)c1cccc([N+](=O)[O-])c1 [Compound AD-037]
[B] C=C(CN(C)C/C=C/C#CC(C)(C)C)c1ccc(O)cc1 [Compound PR-1606]
Given the listed records, identify the one among A and B with higher MIC. Pick one; state its label.
B
(B: 50 µg/mL, A: 1.56 µg/mL)
